Tested on: HL-60(TB) leukemia
procedure text: NCI-60 one-dose screen, 48 h (100 = growth as untreated, 0 = no growth, -100 = all killed)
experimental parameters: 10 µM unless noted
The panel holds about 83,000 compounds, 20% with a hit somewhere; the sample as a whole holds those more often. Active and inactive are the calls of the source. Rule for the calls: active = growth percent below 10; inactive = the rest.
property label: growth

{"compound": "Nc1c(C(=O)Nc2ccccc2F)sc2nc3c(cc12)CCCC3", "growth": "15.5% (inactive)"}
{"compound": "CN(C)CCOC(=O)Nc1ccc(Cc2ccc(NC(=O)OCCN(C)C)cc2)cc1", "growth": "52.8% [100 µM] (inactive)"}
{"compound": "CC(=O)OC(C)c1cccc(C#N)c1 (stereo not drawn)", "growth": "105% (inactive)"}
{"compound": "CCC(c1ccccc1)C(CC)c1ccc(O)c(O)c1 (stereo not drawn)", "growth": "68% (inactive)"}
{"compound": "CCc1nn2c(-c3cc(OC)c(OC)c(OC)c3)c(-c3cc(OC)c(OC)c(OC)c3)nc2s1", "growth": "59.3% (inactive)"}
{"compound": "C#CCn1cnc2cnc(Nc3cccc(NC(=O)C=C)c3)nc21", "growth": "8.32% [6.25 µM] (active)"}

Need growth, item Cc1cc(Nc2c3ccccc3nc3ccccc23)ccc1NS(C)(=O)=O 32.2% (inactive)

Need growth, item COc1ccc2c(c1)c(-c1nc(-c3ccc4ccccc4c3)cs1)cn2C 85.7% (inactive)

Need growth, item Cc1nn(-c2ccccc2)nc1C(=O)Nc1ccccc1C(=O)NCC1CC1 95.8% (inactive)

Need growth, item CCCCCCCCCCN(CCCCCCCCCC)CC(=O)c1ccc2cc(Br)c3ccccc3c2c1 -62.2% (active)

====

System: SF-295 CNS
procedure text: NCI-60 one-dose screen, 48 h (100 = growth as untreated, 0 = no growth, -100 = all killed)
experimental parameters: 10 µM unless noted
This is part of a sample that, as a whole, favours compounds with a hit. Of some 83,000 tested, about 20% had one in any assay.
growth under 90% gets true, anything at or over 90% gets false.

{"compound": "CC1(C)N=C(N)N=C(N)N1c1ccc(CCCCc2ccc(S(=O)(=O)F)cc2)c(Cl)c1", "measured on": "SF-295 CNS", "assigned label": "true"}

I wonder whether O=c1[nH]c2cc(Cl)ccc2n1C1CCN(CCCC(c2ccc(F)cc2)c2ccc(F)cc2)CC1 has growth below 90%. Can you tell? true

I wonder whether NC(=O)OCC(CO)(c1ccccc1)c1ccccc1 has growth below 90%. Can you tell? false

I wonder whether CCOC(=O)C1(c2ccccc2)CCN(CC(=O)c2ccc(NC(C)=O)cc2)CC1 has growth below 90%. Can you tell? false

I wonder whether C=C=[CH][Sn]([c]1ccccc1)([c]1ccccc1)[c]1ccccc1 has growth below 90%. Can you tell? true

I wonder whether O=[N+]([O-])c1ccc(/C=C/C=C/c2ccc(S(=O)(=O)F)cc2)c(Cl)c1 has growth below 90%. Can you tell? false

I wonder whether CNC(=O)Oc1cc(C(C)C)ccc1Sc1ccc(C(C)C)cc1OC(=O)NC has growth below 90%. Can you tell? true

I wonder whether O=S(=O)(O)c1ccc(-c2ccc([As](=O)(O)O)cc2)cc1 has growth below 90%. Can you tell? false

I wonder whether O=C(CI)Nc1ccc(Br)cc1 has growth below 90%. Can you tell? false

====

Tested on: HL-60(TB) leukemia
procedure text: NCI-60 one-dose screen, 48 h
experimental parameters: 10 µM unless noted
This is part of a sample that, as a whole, favours compounds with a hit. Of some 83,000 tested, about 20% had one in any assay. Activity calls are given as the source filed them. How the source made its calls: active means growth percent below 10; inactive means the rest.
Respond with a class label; see active, inactive

Please review the following examples before continuing.
{"compound": "CC(=O)OC[C@]12CC[C@@H]([C@@H](C)C(N)=O)[C@@H]1[C@H]1CC[C@@H]3[C@@]4(C)CC[C@H](OC(C)=O)C(C)(C)[C@@H]4CC[C@@]3(C)[C@]1(C)CC2", "assigned label": "active"}
{"compound": "COc1cc2c(C#N)n3c(c2cc1OC)C(=O)C(c1ccccc1)Oc1ccccc1-3 (stereo not drawn)", "assigned label": "inactive"}
{"compound": "CCc1ccccc1NC(=O)c1sc2nc3c(cc2c1N)C(=O)CCC3", "assigned label": "active"}
{"compound": "Cc1ccc(S(=O)(=O)Nn2c3c(cc(-c4nc5ccccc5s4)c2=O)CCCCCC3)cc1", "assigned label": "inactive"}
{"compound": "O=C1/C(=C/c2ccc(O)cc2)CSc2ccc(Cl)cc21", "assigned label": "inactive"}

I would be grateful if you could indicate the recorded call for O=Nc1ccccc1N=O . inactive

I would be grateful if you could indicate the recorded call for CN(C)CCS(=O)(=O)Nc1cc(-c2ccc3ncnc(Nc4ccc(F)c(Cl)c4)c3c2)cnc1Cl . active

I would be grateful if you could indicate the recorded call for COc1cc(CCn2nnc3c(NCCCCO)ncnc32)cc(OC)c1 . inactive

====

Test system: M14 melanoma
procedure text: NCI-60 one-dose screen, 48 h (100 = growth as untreated, 0 = no growth, -100 = all killed)
experimental parameters: 10 µM unless noted
Procedure: Growth inhibition of the M14 human tumor cell line is measured as a screen for anti-cancer activity. Cells are grown in 96 well plates and exposed to the test compound for 48 hours. Compounds are tested at a single concentration, which is 10^-5 M for most compounds. The reported endpoint is percent growth (GI% or GIPRCNT), where numbers from 0 - 100% represent growth inhibition, and numbers from -100% - 0 represent cell death. For example, a value of 40 represents 60% growth inhibition. […]
This is part of a sample that, as a whole, favours compounds with a hit. Of some 83,000 tested, about 20% had one in any assay. The source made the active and inactive calls. Rule for the calls: active = growth percent below 10; inactive = the rest.
# key: entry, value: growth

{"compound": "O=CN1N=C(c2ccc3c(c2)OCO3)CC1c1sc(N(CCCl)CCCl)nc1Cl (centres undefined)", "growth": "102% (inactive)"}

Need growth, item OC1(c2ccc(Cl)cc2Cl)c2ccccc2C2=NCCN21 (centres undefined) 102% (inactive)

Need growth, item Cc1ccc(C(=O)C2CN(C)CCC2(O)c2ccc(C)cc2)cc1 (centres undefined) 113% (inactive)

Need growth, item COC(=O)C1CC2c3ccccc3C1c1ccccc12 (centres undefined) 107% (inactive)

====

Test system: MOLT-4 leukemia
procedure text: NCI-60 one-dose screen, 48 h
experimental parameters: 10 µM
Method: Growth inhibition of the MOLT-4 human tumor cell line is measured as a screen for anti-cancer activity. Cells are grown in 96 well plates and exposed to the test compound for 48 hours. Compounds are tested at a single concentration, which is 10^-5 M for most compounds. The reported endpoint is percent growth (GI% or GIPRCNT), where numbers from 0 - 100% represent growth inhibition, and numbers from -100% - 0 represent cell death. For example, a value of 40 represents 60% growth inhibition. […]
The panel holds about 83,000 compounds, 20% with a hit somewhere; the sample as a whole holds those more often. Active and inactive are the calls of the source. How the source made its calls: active means growth percent below 10; inactive means the rest.
Respond with a class label; see active, inactive

{"compound": "Nc1ccc(N)c2c1Oc1ccccc1O2", "measured on": "MOLT-4 leukemia", "assigned label": "inactive"}

I would be grateful if you could indicate the recorded call for O=S(=O)(F)c1ncnc2nc[nH]c12 . inactive

I would be grateful if you could indicate the recorded call for NC(=O)C(Cl)Cl . inactive

I would be grateful if you could indicate the recorded call for COc1ccccc1N1CCN(CCc2c[nH]c3cc4c(cc23)OCO4)CC1 . inactive

I would be grateful if you could indicate the recorded call for O=[N+]([O-])c1ccc(/C=C/C=C/c2ccc(S(=O)(=O)F)cc2)c(Cl)c1 . inactive

I would be grateful if you could indicate the recorded call for CC(=O)C1C(=O)N(C)C(=O)N(C)C1=O . inactive

I would be grateful if you could indicate the recorded call for CC(/C=N/N=C(N)N)=N\N=C(N)N . inactive

I would be grateful if you could indicate the recorded call for C#CC1(O)CCC2(C)C(CCC3C4CCC(=O)C4(C)CCC32)C1 (stereo not drawn) . inactive

I would be grateful if you could indicate the recorded call for O=C(CCc1ccco1)NC1CCN(CC2(c3ccc(Cl)cc3)CCC2)CC1 . active

I would be grateful if you could indicate the recorded call for O=[N+]([O-])c1ccccc1N1CCNCC1 . inactive

I would be grateful if you could indicate the recorded call for CC(C)Nc1ccc(Nc2ccccc2)cc1 . inactive

I would be grateful if you could indicate the recorded call for CNC(=O)Oc1cc(C(C)C)ccc1Sc1ccc(C(C)C)cc1OC(=O)NC . inactive

====

Test system: HL-60(TB) leukemia
procedure text: NCI-60 one-dose screen, 48 h
experimental parameters: 10 µM unless noted
Compounds without any hit were thinned out: in the full panel of roughly 83,000, 20% have a hit. Calls of active or inactive are those of the source. How the source made its calls: active means growth percent below 10; inactive means the rest.
Respond with a class label; see label 1 (active), label 0 (inactive)

I would be grateful if you could indicate the recorded call for CN=C1C=CC(=C(c2ccc(N(C)C)cc2)c2ccc(N(C)C)cc2)C=C1 . label 1

I would be grateful if you could indicate the recorded call for O=c1cn[nH]c2ccc(Br)cc12 . label 0

I would be grateful if you could indicate the recorded call for CC(C)(C)OC(=O)CC1(O)CCCCC1 . label 0

I would be grateful if you could indicate the recorded call for COc1ccc(-c2cnnc3c(-c4cccc(C(F)(F)F)c4)cnn23)cc1 . label 0

I would be grateful if you could indicate the recorded call for S=C(c1ccccc1)N1CCN(c2cccc(Cl)c2)CC1 . label 0

I would be grateful if you could indicate the recorded call for COc1cc(/C=N/NC(=O)c2ccc(-n3cc(-c4ccccc4)nn3)cc2)cc(OC)c1OC . label 0

I would be grateful if you could indicate the recorded call for O=C1c2ccccc2C(=O)c2c1ccc1c(=O)n(-c3ccccc3C(F)(F)F)nnc21 . label 1

I would be grateful if you could indicate the recorded call for CN1CCN(CC(O)COc2c(Br)c(Br)c(Br)c3c2OC(C)(C)C3)CC1 (stereo not given) . label 0

I would be grateful if you could indicate the recorded call for CCOC(=O)c1c[nH]n2c(=S)ncnc12 . label 0

I would be grateful if you could indicate the recorded call for CCCCCCCCCCCCCCCCC(=O)O.CCCCCCCCCCCCCCCCCC(=O)O.CCCCCCCCCCCCCCCCCC(=O)O.CCCCCCCCCCCCCCCCCC(=O)O.CCCCCCCCCCCCCCCCCC(=O)O.CO[CH-]OC12COC1CC(O)C1(C)C(O)C(OC(C)O)C3=C(C)C(OC(=O)C(O)C([NH-])c4ccccc4)CC(O)(C(OC(=O)c4ccccc4)C21)C3(C)C.[Cu+].[Zn].[Zn].[Zn].[Zn].[Zn] (stereo not given) . label 1

I would be grateful if you could indicate the recorded call for N#CC1(C#N)C2=C(CCCC2)NC(c2c(F)cccc2Cl)C1(C#N)C#N (stereo not given) . label 1

I would be grateful if you could indicate the recorded call for O=C(O)c1ccc2c(c1Sc1ccccc1)C(=O)c1ccccc1C2=O . label 0

I would be grateful if you could indicate the recorded call for CSc1[nH]c(=O)ncc1F . label 0

I would be grateful if you could indicate the recorded call for Nc1ncnc2c1ncn2C1OC(CO)C2OC21 (stereo not given) . label 0

I would be grateful if you could indicate the recorded call for Cn1cc(-c2ncnc3ccc(-c4cnc(Cl)c(NS(C)(=O)=O)c4)cc23)c2ccccc21 . label 0

Measured values drawn from PubChem BioAssay (NCI) for this set.
